Listing: growth of selected molecules
# Test system: MDA-MB-435 melanoma
# PROTOCOL: NCI-60 one-dose screen, 48 h (100 = growth as untreated, 0 = no growth, -100 = all killed)
# CONDITION DESCRIPTION: 10 µM unless noted
The panel holds about 83,000 compounds, 20% with a hit somewhere; the sample as a whole holds those more often.
Write the number in % without appending the unit.

In the examples that follow, each entry is paired with its recorded growth.
CC(=O)Oc1ccc(Cl)cc1 | 101
CSc1ccccc1NP1(=O)OCC(C)([N+](=O)[O-])CO1 (centres undefined) | 107
CC(=O)C1CCC2C3CC=C4CC(OC(=O)Cc5ccc(N(CCCl)CCCl)cc5)CCC4(C)C3CCC12C (centres undefined) | 111
O=C(NCc1ccc([N+](=O)[O-])cc1)Nc1ccc(S(=O)(=O)F)cc1 | 92.8
CCOCC1(CCc2ccccc2)C(=O)NC(=S)NC1=O | 108

Given the entry CC(/C=N/N=C(N)N)=N\N=C(N)N , report its measured growth.
89.2

Repeat for the following molecule: Oc1ccc(O)c2c1C1(Cl)C(Cl)=C(Cl)C2(Cl)C1(Cl)Cl
-3.33

Repeat for the following molecule: N#CC1=C(N)Oc2cc3c(cc2C1c1cccs1)OCO3 (centres undefined)
-7.43

Repeat for the following molecule: C[CH2][Pb]([CH2]C)([CH2]C)[O]C(=O)COc1ccccc1
-31.9

Repeat for the following molecule: CNC(=O)Oc1cccc(OC)c1
95.5

Repeat for the following molecule: Cc1cc(CCl)c(C)cc1CCl
76.5

Repeat for the following molecule: COC(=O)C(=[N+]=[N-])C(=O)OC
100

Repeat for the following molecule: O=S(=O)(O)c1ccc(-c2ccc([As](=O)(O)O)cc2)cc1
103

Repeat for the following molecule: O=[As]c1ccc(C(=O)c2ccc(Oc3ccccc3)cc2)cc1 (centres undefined)
-52

Repeat for the following molecule: O=C1c2ccccc2C(=O)N1[N+](=O)[O-]
110

Repeat for the following molecule: C[C@]12CC[C@H]3[C@@H](C[C@@H]4N=C(c5ccc(O)cc5)S[C@@]45C[C@H](O)CC[C@]35C)[C@@H]1CC[C@@H]2O
92

Repeat for the following molecule: O=CN1N=C(c2ccc3c(c2)OCO3)CC1c1sc(N(CCCl)CCCl)nc1Cl (centres undefined)
97.6

Repeat for the following molecule: CCN1CC2(CN(CC)C1=S)C(=O)NC(=O)NC2=O
103

Repeat for the following molecule: Cc1ccc(N)cc1[As]=[As]c1cc(N)ccc1C (centres undefined)
-89

Repeat for the following molecule: CNC(=O)Oc1ccccc1-c1ccccc1
99.3

Repeat for the following molecule: CNC(C)Cc1ccccc1 (centres undefined) (tested in a mixture with another compound)
104

* * *

# System: HL-60(TB) leukemia
# PROTOCOL: NCI-60 one-dose screen, 48 h
# CONDITION DESCRIPTION: 10 µM unless noted
The panel holds about 83,000 compounds, 20% with a hit somewhere; the sample as a whole holds those more often. Calls of active or inactive are those of the source. The calls were made as follows: active = growth percent below 10; inactive = the rest.
Write down the outcome that applies. Available outcomes: active, inactive

Cn1nc(C(F)(F)F)cc1-c1c[nH]c(OCc2ccc(Cl)cc2)c(-c2ccc(Cl)c(C(F)(F)F)c2)c1=O | active
N#Cc1c(-c2ccc(Cl)cc2)csc1NC(=O)Nc1cccc(C(F)(F)F)c1 | active
Nc1nnc(CSc2nnc3n(Cc4ccccc4)c(=O)c4c5c(sc4n23)CCCC5)s1 | inactive

Could you please tell me the result logged for CC1OC(C(=O)N2CCN(CCO)CC2)CC1COC1CCCCC1 (centres undefined) in this assay?
inactive

Repeat for the following compound: Nc1ncnc2c1c(-c1cccc(OCc3ccccc3)c1)cn2C1CC(CN2CCC2)C1 (centres undefined)
active

Repeat for the following compound: CCCCCC(CCCCC)C(=O)O
inactive

Repeat for the following compound: CC(O)C(F)(F)C(F)(F)C(F)(F)F (centres undefined)
inactive

Repeat for the following compound: Cc1cc2nc3ccc(N=Nc4ccc(N(C)C)cc4)cc3n(-c3ccccc3)c-2cc1=N
active

Repeat for the following compound: O=C(Nc1ncc(Cc2cc(C(F)(F)F)ccc2Cl)s1)C(=S)N1CCOCC1
inactive

Repeat for the following compound: COc1ccc(-c2nsc3c2NC(=O)CC3c2cccc(OC)c2)cc1 (centres undefined)
active

Repeat for the following compound: CCCCCCCCCCCCNC(=O)N[C@H](C(=O)N[C@H]1/C=C/OCCNC(=O)/C=C/[C@H](C(C)C)NC1=O)C(C)C
inactive

* * *

# Tested on: SNB-75 CNS
# PROTOCOL: NCI-60 one-dose screen, 48 h
# CONDITION DESCRIPTION: 10 µM unless noted
This is part of a sample that, as a whole, favours compounds with a hit. Of some 83,000 tested, about 20% had one in any assay. The source made the active and inactive calls. How the source made its calls: active means growth percent below 10; inactive means the rest.
Write down the outcome that applies. Available outcomes: t (active), f (inactive)

CCC(C)/C=C(C)/C=C/C(=O)c1c(O)c(-c2ccc(O)cc2)c[nH]c1=O (stereo unspecified) | f

Could you please tell me the result logged for O=S(=O)(Cl)c1ccccc1 (tested in a mixture with another compound) in this assay?
f

* * *

# System: SK-MEL-28 melanoma
# PROTOCOL: NCI-60 one-dose screen, 48 h (100 = growth as untreated, 0 = no growth, -100 = all killed)
# CONDITION DESCRIPTION: 10 µM unless noted
This is part of a sample that, as a whole, favours compounds with a hit. Of some 83,000 tested, about 20% had one in any assay.
MEASUREMENT NAME: growth (%)
Write the number in % without appending the unit.

Given the entry O=[N+]([O-])c1ccc(F)c([N+](=O)[O-])c1F , report its measured growth.
116

Repeat for the following molecule: CC(C)N=C(NC(C)C)N1CC1
106

Repeat for the following molecule: Cc1cc([N+](=O)[O-])c(Cl)cc1NS(=O)(=O)c1ccccc1
76

Repeat for the following molecule: CCCCCN(CCCCC)CC(O)c1ccc(C)c(Cl)c1 (stereo unspecified)
96.6

Repeat for the following molecule: CCC(C)/C=C(C)/C=C/C(=O)c1c(O)c(-c2ccc(O)cc2)c[nH]c1=O (stereo unspecified)
91

* * *

# System: OVCAR-4 ovarian
# PROTOCOL: NCI-60 one-dose screen, 48 h
# CONDITION DESCRIPTION: 10 µM unless noted
About 83,000 compounds went through this panel and 20% of them were active in at least one assay; those are over-represented in the sample as a whole. Activity calls are given as the source filed them. The calls were made as follows: active = growth percent below 10; inactive = the rest.
Write down the outcome that applies. Available outcomes: y for active, n for inactive

CC(=O)N1N=C(c2ccccc2)CC1c1sc(N(CCCl)CCCl)nc1Cl (configuration not stated) | n
C[C@]12CCC(=O)CC1CC[C@@H]1C2CC[C@@]2(C)C1CC[C@@H]2OC(=O)CC[Se][Se]CCC(=O)O[C@H]1CCC2[C@@H]3CCC4CC(=O)CC[C@]4(C)C3CC[C@@]21C (some centres not stated) | n

Could you please tell me the result logged for O=c1cc[nH]c(=O)o1 in this assay?
n

Repeat for the following compound: CC(=O)N(C)C1=Nc2ccc(Cl)cc2C(c2ccccc2)=[N+]([O-])C1
n

Repeat for the following compound: COc1ccc2c(c1)NC1=C(C(=O)OC1)C2c1cc(OC)c(OC)c(OC)c1 (configuration not stated)
n

Repeat for the following compound: COc1cccc2c1C(=O)c1c(O)c3c(c(O)c1C2=O)CC(O)(/C(C)=N/NC(=O)CCC(=O)N/N=C(\C)C1(O)Cc2c(O)c4c(c(O)c2C(OC2CC(N)C(O)C(C)O2)C1)C(=O)c1c(OC)cccc1C4=O)CC3OC1CC(N)C(O)C(C)O1 (configuration not stated)
y

Repeat for the following compound: O=C(O)C1(Br)CC12c1ccccc1-c1ccccc12 (configuration not stated)
n

Repeat for the following compound: C=CCN1C(=O)C(CC)(CCC(C)C)C(=O)NC1=S (configuration not stated)
n

* * *

# Test system: HL-60(TB) leukemia
# PROTOCOL: NCI-60 one-dose screen, 48 h (100 = growth as untreated, 0 = no growth, -100 = all killed)
# CONDITION DESCRIPTION: 10 µM unless noted
About 83,000 compounds went through this panel and 20% of them were active in at least one assay; those are over-represented in the sample as a whole. Calls of active or inactive are those of the source. How the source made its calls: active means growth percent below 10; inactive means the rest.
Listing: growth of selected compounds

COc1cccc(-c2cnco2)c1OCc1c(C)c(COc2c(OC)cccc2-c2cnco2)c(C)c(COc2c(OC)cccc2-c2cnco2)c1C | 76.4% (inactive)
O=C(Nc1ccc(I)cc1F)c1cc(I)ccc1O | -25.2% (active)
COc1cc(/C=C/C(=O)N2CCN(C(=O)c3cc(OC)c(OC)c(OC)c3)CC2)ccc1OCCCN1C(=O)c2cccc3cccc(c23)C1=O | 56.7% (inactive)
C1CCCCNCCC1 | 114% (inactive)

Next item in the queue.
Given the entry O=c1onc(-c2ccccc2)c2ccccc12 , report its measured growth.
86.8% (inactive)
